target: YTH^YTHDF1 (Homo sapiens, UniProt Q9BYJ9); construct: Genes of the YTH domain of YTHDF1 (amino acids 375-552); His tag (N); made in house; host or cells: E. coli BL21(DE3); experiment: FP competition assay, YTH domain of YTHDF1 and FAM-m6A-RNA; type: binding; conditions: 2 μM YTH^YTHDF1, 25 nM FAM-m^6A-RNA; read-out: IC50, FP competition assay against YTH^YTHDF1
Sequence (Q9BYJ9 375-552): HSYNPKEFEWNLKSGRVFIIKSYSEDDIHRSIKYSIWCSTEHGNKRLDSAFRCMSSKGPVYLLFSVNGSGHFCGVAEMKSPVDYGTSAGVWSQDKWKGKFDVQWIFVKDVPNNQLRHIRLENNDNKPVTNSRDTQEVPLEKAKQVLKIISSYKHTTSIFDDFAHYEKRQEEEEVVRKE
Quantity measured: pIC50
pIC50 (log units): -log10 of the concentration in mol/L.

Prompt: Note pIC50 for the compound shown: O=C1CC2(CCN(c3ncnc4c3ncn4C3CC(CO)(CO)C3)C2)CN1 (stereo not shown)
Completion: 4.41

====

target: YTH^YTHDF3 (Homo sapiens)
Quantity measured: pIC50
pIC50 (log units): -log10 of the concentration in mol/L.

Prompt: Note pIC50 for the compound shown: O=C1CC2(CCN(c3ncnc4c3ncn4C3CC(CO)(CO)C3)C2)CN1 (stereo not shown)
Completion: 4.46

====

biological target: YTH^YTHDF1 (Homo sapiens); construct: Genes of the YTH domain of YTHDF1 (amino acids 375-552); His tag (N); made in house; host or cells: E. coli BL21(DE3); experiment: Competitive RNA electrophoretic mobility shift assay (REMSA), YTHDF1; assay type: binding; conditions: 25 nM FAM-m^6A-RNA, N-7 1-200 μM; read-out: IC50, REMSA against YTH^YTHDF1
Quantity measured: pIC50
pIC50 (log units): -log10 of the concentration in mol/L.

Prompt: Note pIC50 for the compound shown: O=C1CC2(CCN(c3ncnc4c3ncn4C3CC(CO)(CO)C3)C2)CN1 (stereo not shown)
Completion: 4.35

====

target: YTH^YTHDF1 (Homo sapiens); construct: Genes of the YTH domain of YTHDF1 (amino acids 375-552); His tag (N); made in house; host or cells: E. coli BL21(DE3); assay: FP competition assay, YTH domain of YTHDF1 and FAM-m6A-RNA; assay type: binding; conditions: 2 μM YTH^YTHDF1, 25 nM FAM-m^6A-RNA; read-out: IC50, FP competition assay against YTH^YTHDF1
Strand notation (5' to 3'): a small letter for the sugar, then the base; units joined by * are phosphorothioate-linked, units joined directly phosphodiester-linked; [ ] holds rarer units or linkages, { } end groups; capitals alone tell only the bases. [m6A] = N6-methyladenosine ribonucleotide; {Biotin} = biotin label; r = 2'-OH (RNA)
Quantity measured: IC50

Prompt: Find the measured IC50 of m^6A-RNA: non-fluorescent positive control competitor, 5′-biotin-GAACCGG(M6A)CUGUCUUA ({Biotin}-rGrArArCrCrGrGr[m6A]rCrUrGrUrCrUrUrA) with YTH^YTHDF1 (Homo sapiens) as test system.
Completion: 2700 nM

====

For each of the substances below, state its Kd.
biological target: YTH^YTHDF1 (Homo sapiens, UniProt Q9BYJ9); construct: Genes of the YTH domain of YTHDF1 (amino acids 375-552); His tag (N); made in house; host or cells: E. coli BL21(DE3); test: FP binding assay of RNA oligonucleotides with YTH^YTHDF1; settings: 25 nM FAM-labeled RNA, protein up to 24 μM
Strand notation (5' to 3'): a small letter for the sugar, then the base; units joined by * are phosphorothioate-linked, units joined directly phosphodiester-linked; [ ] holds rarer units or linkages, { } end groups; capitals alone tell only the bases. [m6A] = N6-methyladenosine ribonucleotide; {FAM} = fluorescein (FAM) label; {Biotin} = biotin label; r = 2'-OH (RNA)
Entry rule: numbers only, all in nM.

Prompt: Note Kd for the substance shown: FAM-m^6A-RNA: 16-nt FAM-labeled m6A-containing oligonucleotide, 5′-FAM-GAACCGG(M6A)CUGUCUUA ({FAM}-rGrArArCrCrGrGr[m6A]rCrUrGrUrCrUrUrA)
Completion: 800

Prompt: Note Kd for the substance shown: m^6A-RNA: non-fluorescent positive control competitor, 5′-biotin-GAACCGG(M6A)CUGUCUUA ({Biotin}-rGrArArCrCrGrGr[m6A]rCrUrGrUrCrUrUrA)
Completion: 800
